Sourced from ChEMBL document CHEMBL3244078

System: Rattus norvegicus
Assay: Antihypertensive activity in spontaneously hypertensive rat assessed as drop in mean systolic blood pressure at 100 mg/kg, po after 24 hrs by tail cuff method relative to vehicle-treated control
Type: functional, Artery
Measured parameter: Activity
The number alone won't do; follow it with the unit.

{"columns": ["Smiles representation", "Test target", "Activity"],
 "data": [
  ["Cl.O.O=C(NNc1nncc(-c2ccccc2)n1)C12CC3CC(CC(C3)C1)C2", "Rattus norvegicus", "70 mmHg"]
]}

Query molecule follows.
The molecule "O=C(CCCCl)NNc1nncc(-c2ccc(Cl)cc2)n1" showed Activity equal to 25 mmHg

###

Catalogue of molecules with associated LD50 at 48 h
Assay: Toxicity in ip dosed CF-1 mouse after 48 hrs
Measurement setup: in vivo

Worked examples, 2 molecules total:
{"columns": ["Smiles representation", "LD50 at 48 h"],
 "data": [
  ["CC(=O)NNc1nncc(-c2ccc(C)cc2)n1.O", "> 300 mg/kg"],
  ["Cl.O.O=C(NNc1nncc(-c2ccccc2)n1)C12CC3CC(CC(C3)C1)C2", "> 300 mg/kg"]
]}

Query molecule follows.
The molecule "NNc1nncc(-c2ccc(Cl)c(Cl)c2)n1" showed LD50 at 48 h equal to > 300 mg/kg

###

Test system: Rattus norvegicus
Assay: Antihypertensive activity in spontaneously hypertensive rat assessed as drop in mean systolic blood pressure at 100 mg/kg, po after 24 hrs by tail cuff method relative to vehicle-treated control
Type: functional, Artery
Measured parameter: Activity

Worked examples, 4 molecules total:
{"columns": ["Smiles representation", "Activity"],
 "data": [
  ["CCC(=O)NNc1nncc(-c2ccc(Cl)cc2)n1", "79 mmHg"],
  ["CNNc1nncc(-c2ccccc2)n1", "49 mmHg"],
  ["CNNc1nncc(-c2ccc(Cl)cc2)n1", "12 mmHg"],
  ["O=C(NNc1nncc(-c2cccc(Cl)c2)n1)C(F)(F)F", "0 mmHg"]
]}

The molecule "CC(=O)NNc1nncc(-c2cccc(Cl)c2)n1" showed Activity equal to 23 mmHg
